Protocol description: soluble on expression in E. coli; label from the status in PepcDB or PDB records

>  <Biopolymer sequence>
MALPGNYAPEVLLPQIAEINARIYADVNNGVYKAGFATRQSVYEKAVMVLFRCMDELEQLLSRQRYLIGNCITEADWRIFTTLIRFDPVYHGHFKCNLRRLVDYPNLWAYTRELYQWPGVAETVNMQHIKEHYYRSHPTINLEHHHHHH

>  <soluble on expression in E. coli>
not soluble

$$$$
>  <Biopolymer sequence>
AHHHHHHGSSAKLERIVEEISVAFVGHEDVVRKVLSAALANGNVLFEDNPGLGKTLLAKAFAKVLGLEYRRVQFTPDLLPSDILGTKVWRPEKGTFEIVKGPIFTNVLLADEINRAPPKTQSALLEAMEERQVTIEGETFVLERPFFVIATQNPLEFEGTYPLPEAQLDRFLVRMSIGYPKNESEEVEILKARLRWGKDDPTTDLKPAITKSEFLKMQEDVERNVKIHEDILKYIVRIVRTIREDERVEAGPSPRGGLALMKLAKANAYVEGRDYVIPDDVKEFAIEALAHRIFLKPEYSLEKGIEIEIVREALESVPVPKDLKY

>  <soluble on expression in E. coli>
not soluble

$$$$
